Cited source for all entries: patent US6541463B1

biological target: human type 5 17β-hydroxysteroid dehydrogenase (Homo sapiens, UniProt P42330); construct: screen again a human placental λgt11 cDNA to get the full length cDNA clone; expressed in transfected cells; host or cells: human embryonal kidney 293 cells (pCMV / pCMV-neo vector); assay: Inhibition of human type 5 17β-HSD activity in transfected 293 cells; format: cell-based; details: Table 4′; read-out: Inhibition Type V 17β-HSD IC50
Sequence (P42330 whole entry): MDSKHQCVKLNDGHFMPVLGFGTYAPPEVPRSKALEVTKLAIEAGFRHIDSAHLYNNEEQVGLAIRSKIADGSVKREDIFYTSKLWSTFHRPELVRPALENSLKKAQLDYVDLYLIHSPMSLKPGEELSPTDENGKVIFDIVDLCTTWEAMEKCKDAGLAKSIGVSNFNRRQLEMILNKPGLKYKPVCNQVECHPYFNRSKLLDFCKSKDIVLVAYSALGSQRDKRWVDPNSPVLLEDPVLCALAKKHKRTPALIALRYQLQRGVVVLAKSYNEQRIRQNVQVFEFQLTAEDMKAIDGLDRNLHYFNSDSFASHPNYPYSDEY
So I've got a bunch of molecules here, and I need their IC50 values.
Give bare numbers, in nM.

Could I get IC50 for every one of these entries?
1. CC1CCC2(CCC3C4CCc5cc(O)c([N+](=O)[O-])cc5C4CCC32C)OC1=O (centres unmarked) [EM-1131]
2. CC1(C)CCC2(CCC3C4CCc5cc(OS(C)(=O)=O)ccc5C4CCC32C)OC1=O (centres unmarked)
3. CCOc1ccc2c(c1)CCC1C2CC[C@@]2(C)C1CC[C@@]21CCC(C)(C)C(=O)O1 (some centres unmarked)
4. C[C@]12CCC3c4ccc(O)cc4CCC3C1CC[C@@]21CCCC(=O)O1 (some centres unmarked)

Result:
1. 3
2. 12
3. 46
4. 10

----------
experiment: In vivo assay of oral bioavailability (plasma AUC 0-7 h by LCMS/MS); parameters: species or system male Sprague Dawley rats; conditions: male, Sprague-Dawley [Crl:CD(SD)Br], rat, plasma, po, 0.5 mg/rat
So I've got a bunch of molecules here, and I need their AUC(0-t) values.
One number for each entry, in ng·h/mL.

MOLECULE | ENDPOINT | VALUE UNIT | READOUT NUMBER
CC(C)C[C@@H]1CC2C3C=CC4=CC(=O)CC[C@]4(C)C3CC[C@]2(C)C1=O (some centres unmarked) | AUC(0-t) | ng·h/mL | 85

Request: Kindly indicate its recorded AUC(0-t). Item: CCC[C@@H]1CC2C3C=CC4=CC(=O)CC[C@]4(C)C3CC[C@]2(C)C1=O (some centres unmarked)
Result: 122

----------
target: androgen receptor (Rattus norvegicus); construct: from tissue; host or cells: ventral prostate cytosol of gonadectomized male Sprague-Dawley rats; assay: Androgen receptor (AR) assay: inhibition of [3H]R1881 binding, prostate cytosol; conditions: Table 4′; E^−6
Sequence (P15207 whole entry S389L): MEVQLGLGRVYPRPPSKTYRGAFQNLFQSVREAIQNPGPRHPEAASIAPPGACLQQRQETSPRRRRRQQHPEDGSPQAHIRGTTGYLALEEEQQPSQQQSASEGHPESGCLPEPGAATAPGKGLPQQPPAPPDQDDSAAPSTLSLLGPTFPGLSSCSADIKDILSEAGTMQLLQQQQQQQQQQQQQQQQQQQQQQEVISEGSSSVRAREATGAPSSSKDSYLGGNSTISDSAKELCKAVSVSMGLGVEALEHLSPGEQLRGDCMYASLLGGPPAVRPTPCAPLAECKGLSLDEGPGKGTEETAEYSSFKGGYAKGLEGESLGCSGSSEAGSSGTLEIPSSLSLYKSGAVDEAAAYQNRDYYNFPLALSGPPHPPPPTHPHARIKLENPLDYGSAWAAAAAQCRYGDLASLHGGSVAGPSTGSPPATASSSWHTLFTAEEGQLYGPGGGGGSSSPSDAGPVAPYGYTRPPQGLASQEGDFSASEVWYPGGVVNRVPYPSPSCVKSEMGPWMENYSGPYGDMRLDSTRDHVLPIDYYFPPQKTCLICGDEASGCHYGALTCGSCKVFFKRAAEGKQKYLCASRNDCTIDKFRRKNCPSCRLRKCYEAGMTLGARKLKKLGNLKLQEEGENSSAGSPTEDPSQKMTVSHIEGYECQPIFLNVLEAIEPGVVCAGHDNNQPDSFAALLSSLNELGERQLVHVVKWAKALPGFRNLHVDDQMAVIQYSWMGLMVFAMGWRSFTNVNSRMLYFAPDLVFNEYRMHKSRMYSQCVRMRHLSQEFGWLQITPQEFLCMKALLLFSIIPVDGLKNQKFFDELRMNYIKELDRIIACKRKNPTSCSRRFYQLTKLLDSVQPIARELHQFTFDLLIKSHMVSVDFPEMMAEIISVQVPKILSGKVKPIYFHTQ
ENDPOINT: inhibition at 1 µM (%)
Give bare numbers, in %.

Examples from the recorded data:
MOLECULE | inhibition at 1 µM [%]
COCCOc1cc2c(cc1C(=O)O)C1CCC3(C)C(CCC34CCC(C)(C)C(=O)O4)C1CC2 (centres unmarked) | 0
CC1(C)CC[C@@]2(CCC3C4CCc5cc(C(=O)O)ccc5C4CC[C@@]32C)OC1=O (some centres unmarked) | 0
COCCOc1cc2c(cc1C#N)C1CC[C@@]3(C)C(CC[C@@]34CCC(C)(C)C(=O)O4)C1CC2 (some centres unmarked) | 2

Could I get inhibition at 1 µM for every one of these entries?
1. CC1(C)CC[C@@]2(CCC3C4CCc5cc6oncc6cc5C4CC[C@@]32C)OC1=O (some centres unmarked)
2. CC1(C)CCC2(CCC3C4CCc5c(cc(Cl)c(O)c5Cl)C4CCC32C)OC1=O (centres unmarked)
3. CSCCOc1ccc2c(c1)CCC1C2CCC2(C)C1CCC21CCCC(=O)O1 (centres unmarked)
4. COCCOc1cc2c(cc1C(N)=O)C1CC[C@@]3(C)C(CC[C@@]34CCC(C)(C)C(=O)O4)C1CC2 (some centres unmarked)
5. CCS(=O)(=O)Oc1ccc2c(c1)CCC1C2CCC2(C)C1CCC21CCC(C)(C)C(=O)O1 (centres unmarked)

Result:
0
0
0
2
0

----------
biological target: glucocorticoid receptor (Rattus norvegicus); construct: from tissue; host or cells: liver cytosol of male Sprague-Dawley rats; assay: Glucocorticoid receptor assay: inhibition of [3H]-dexamethasone binding, liver cytosol; conditions: E^−6
So I've got a bunch of compounds here, and I need their % Inhibition Glucocorticoid Receptor values.
Numbers only, in %.

Could I get % Inhibition Glucocorticoid Receptor for every one of these entries?
1. CCC(=O)O[C@]1(C(C)=O)CCC2C3C=C(C)C4=CC(=O)C[C@H](C)[C@]4(C)C3CC[C@@]21C (stereo partly shown) [CS-243]
2. CCCC(=O)OC1(C(C)=O)CCC2C3C=C(C)C4=CC(=O)CC(C)C4(C)C3CCC21C (stereo not shown) [CS-245]
3. CC(=O)O[C@]1(C(C)=O)CCC2C3C=C(C)C4=CC(=O)CC[C@]4(C)C3CC[C@@]21C (stereo partly shown) [megestrol acetate, reference compound]
4. CCCCN(C)C(=O)[C@@]1(OC(C)=O)CCC2C3C=C(C)C4=CC(=O)CC[C@]4(C)C3CC[C@@]21C (stereo partly shown) [EM-1165]

Result:
29
43
82
26

----------
test system: progesterone receptor; experiment: Progesterone receptor assay: inhibition of [3H]R5020 binding, uterine cytosol; set-up: species or system rat; conditions: Table 4′; E^−8
So I've got a bunch of compounds here, and I need their % Inhibition Progesterone Receptor E^−8 values.
Numbers only, in %.

COMPOUND | VALUE UNIT | READOUT NUMBER
CN(C)C(=O)c1ccc2c(c1)CCC1C2CCC2(C)C1CCC21CCC(C)(C)C(=O)O1 (stereo not shown) | % | 0
COc1c(Br)cc2c(c1Br)CCC1C2CCC2(C)C1CCC21CCC(C)(C)C(=O)O1 (stereo not shown) | % | 2

Could I get % Inhibition Progesterone Receptor E^−8 for every one of these entries?
1. COCCOc1ccc2c(c1)C(=O)CC1C2CCC2(C)C1CCC21CCC(C)(C)C(=O)O1 (stereo not shown)
2. CC1(C)CCC2(CCC3C4CCc5cc(OS(C)(=O)=O)ccc5C4CCC32C)OC1=O (stereo not shown)

Result:
[0, 2]

----------
biological target: glucocorticoid receptor (Rattus norvegicus, UniProt P06536); construct: from tissue; host or cells: liver cytosol of male Sprague-Dawley rats; assay: Glucocorticoid receptor assay: inhibition of [3H]-dexamethasone binding, liver cytosol; details: E^−6
Sequence (P06536 whole entry): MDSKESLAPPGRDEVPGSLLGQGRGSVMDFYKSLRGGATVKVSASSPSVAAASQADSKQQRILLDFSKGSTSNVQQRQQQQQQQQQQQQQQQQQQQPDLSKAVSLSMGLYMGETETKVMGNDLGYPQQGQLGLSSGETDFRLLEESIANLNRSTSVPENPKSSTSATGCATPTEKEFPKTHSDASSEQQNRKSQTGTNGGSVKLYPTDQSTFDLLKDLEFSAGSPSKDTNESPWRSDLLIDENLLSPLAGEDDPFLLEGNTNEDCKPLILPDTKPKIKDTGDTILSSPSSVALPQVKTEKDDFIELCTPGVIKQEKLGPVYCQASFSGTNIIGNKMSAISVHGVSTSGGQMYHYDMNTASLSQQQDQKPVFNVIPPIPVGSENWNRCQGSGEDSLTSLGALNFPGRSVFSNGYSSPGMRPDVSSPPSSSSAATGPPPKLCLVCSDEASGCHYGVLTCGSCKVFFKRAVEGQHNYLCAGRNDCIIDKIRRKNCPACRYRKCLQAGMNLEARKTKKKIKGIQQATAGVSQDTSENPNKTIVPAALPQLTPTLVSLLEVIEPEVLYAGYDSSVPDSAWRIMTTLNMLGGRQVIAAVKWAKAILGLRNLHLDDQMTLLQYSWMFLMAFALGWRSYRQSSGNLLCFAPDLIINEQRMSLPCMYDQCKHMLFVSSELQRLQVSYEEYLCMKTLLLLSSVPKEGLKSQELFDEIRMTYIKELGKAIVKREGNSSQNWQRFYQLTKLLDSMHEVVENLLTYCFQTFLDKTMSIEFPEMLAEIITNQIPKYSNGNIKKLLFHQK
So I've got a bunch of compounds here, and I need their % Inhibition Glucocorticoid Receptor values.
One number for each entry, in %.

COMPOUND | ENDPOINT | VALUE UNIT | READOUT NUMBER
CC(=O)[C@@]1(OC(=O)CCCCF)CCC2C3C=C(C)C4=CC(=O)CC[C@]4(C)C3CC[C@@]21C (stereo partly shown) | % Inhibition Glucocorticoid Receptor | % | 90
CC(=O)O[C@]1(C(=O)N(C)C)CCC2C3C=C(C)C4=CC(=O)CC[C@]4(C)C3CC[C@@]21C (stereo partly shown) | % Inhibition Glucocorticoid Receptor | % | 59
COc1ccc(CC(=O)O[C@]2(C(C)=O)CCC3C4C=C(C)C5=CC(=O)C=C[C@]5(C)C4CC[C@@]32C)cc1 (stereo partly shown) | % Inhibition Glucocorticoid Receptor | % | 69

API: the following record is the query input.
Request: Kindly indicate its recorded % Inhibition Glucocorticoid Receptor. Item: "COC(=O)CCCC(=O)O[C@]1(C(C)=O)CC[C@H]2[C@@H]3C=C(C)C4=CC(=O)CC[C@]4(C)[C@H]3CC[C@@]21C"
Result: 0

----------
molecular target: estrogen receptor (Rattus norvegicus); construct: from tissue; host or cells: uterine cytosol of gonadectomized female Sprague-Dawley rats; test: Estrogen receptor (ER) assay: inhibition of [3H]E2 binding, uterine cytosol; conditions: Table 4′; E^−6
So I've got a bunch of compounds here, and I need their % Inhibition Estrogen Receptor E^−6 values.
Answers are plain numbers, in %.

Examples from the recorded data:
COMPOUND | READOUT NUMBER
CC1(C)CCC2(CCC3C4CCc5c(cc(Cl)c(OS(C)(=O)=O)c5Cl)C4CCC32C)OC1=O (stereo not drawn) | 0
CC1(C)CCC2(CCC3C4CCc5ccccc5C4CCC32C)OC1=O (stereo not drawn) | 2
CC12CCC3c4ccc(F)cc4CCC3C1CCC21CCCC(=O)O1 (stereo not drawn) | 0
CC1CCC2(CCC3C4CCc5ccccc5C4CCC32C)OC1=O (stereo not drawn) | 4
CN(C)CCOc1ccc2c(c1)CCC1C2CCC2(C)C1CCC21CCC(C)(C)C(=O)O1 (stereo not drawn) | 0
CC1(C)CC[C@@]2(CCC3C4CCc5cc(C(N)=O)ccc5C4CCC32C)OC1=O (stereo partly drawn) | 0

Could I get % Inhibition Estrogen Receptor E^−6 for every one of these entries?
1. COCCOc1cc2c(cc1C(N)=O)C1CC[C@@]3(C)C(CC[C@@]34CCC(C)(C)C(=O)O4)C1CC2 (stereo partly drawn)
2. COCCOc1cc2c(cc1C(=O)O)C1CCC3(C)C(CCC34CCC(C)(C)C(=O)O4)C1CC2 (stereo not drawn)
3. CC1(C)CC[C@@]2(CCC3C4CCc5cc(C(=O)O)ccc5C4CC[C@@]32C)OC1=O (stereo partly drawn)

Result:
1. 3
2. 0
3. 2

----------
biological target: estrogen receptor (Rattus norvegicus, UniProt P06211); construct: from tissue; host or cells: uterine cytosol of gonadectomized female Sprague-Dawley rats; experiment: Estrogen receptor (ER) assay: inhibition of [3H]E2 binding, uterine cytosol; details: E^−6
Sequence (P06211 whole entry): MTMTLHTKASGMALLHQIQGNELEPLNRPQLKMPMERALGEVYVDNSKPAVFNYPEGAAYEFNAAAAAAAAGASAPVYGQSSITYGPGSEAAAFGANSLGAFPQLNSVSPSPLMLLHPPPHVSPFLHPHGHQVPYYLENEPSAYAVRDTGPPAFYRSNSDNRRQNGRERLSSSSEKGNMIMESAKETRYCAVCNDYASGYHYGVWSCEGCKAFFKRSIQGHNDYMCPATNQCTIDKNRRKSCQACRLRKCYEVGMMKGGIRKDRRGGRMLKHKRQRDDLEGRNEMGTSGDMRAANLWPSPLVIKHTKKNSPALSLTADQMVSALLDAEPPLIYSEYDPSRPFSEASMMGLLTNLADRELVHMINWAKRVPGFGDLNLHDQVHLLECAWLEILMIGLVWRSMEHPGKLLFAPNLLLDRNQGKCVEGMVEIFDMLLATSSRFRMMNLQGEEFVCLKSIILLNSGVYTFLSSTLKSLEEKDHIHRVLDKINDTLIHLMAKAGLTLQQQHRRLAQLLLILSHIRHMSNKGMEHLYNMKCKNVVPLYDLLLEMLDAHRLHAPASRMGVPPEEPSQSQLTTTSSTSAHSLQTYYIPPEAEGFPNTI
So I've got a bunch of compounds here, and I need their % Inhibition Estrogen Receptor E^−6 values.
One number for each entry, in %.

Examples from the recorded data:
COMPOUND | % Inhibition Estrogen Receptor E^−6 [%]
CCC[C@]1(F)CC2C3C=CC4=CC(=O)CC[C@]4(C)C3CC[C@]2(C)C1=O (stereo partly shown) | 0
C[C@]12CCC(=O)C=C1C=C[C@@H]1[C@@H]2CC[C@]2(C)C(=O)C3(CC4CC4C3)C[C@@H]12 (stereo partly shown) | 3
CCC[C@@H]1CC2C3C=CC4=CC(=O)CC[C@]4(C)C3CC[C@]2(C)C1=O (stereo partly shown) | 1
CC(=O)O[C@]1(C)C(=O)CCC2C3C=C(C)C4=CC(=O)C=C[C@]4(C)C3CC[C@@]21C (stereo partly shown) | 0
CC12C=CC(=O)C=C1C=CC1C2CCC2(C)C(=O)C3(CCCCC3)CC12 (stereo not shown) | 0
CCCC(=O)O[C@]1(C)C(=O)CCC2C3C=C(C)C4=CC(=O)CC[C@]4(C)C3CC[C@@]21C (stereo partly shown) | 0

API: the following record is the query input.
Request: Kindly indicate its recorded % Inhibition Estrogen Receptor E^−6. Item: CC(C)C[C@@H]1CC2C3C=CC4=CC(=O)CC[C@]4(C)C3CC[C@]2(C)C1=O (stereo partly shown)
Result: 0
